target: hERG (KCNH2) potassium channel (Homo sapiens); test: Potassium Channel hERG Eurofins-Panlabs radioligand binding assay; design: ligand concentration 0.05 nM, non-specific ligand with concentration 1 µM L-706,000, incubation time 75 min, incubation temperature 25 °C; settings: HEK-293 cells expressing recombinant human hERG, probe [S35] L-706,000 (radioligand, 0.05 nM), compound concentration 10 uM
Sequence (Q12809 whole entry): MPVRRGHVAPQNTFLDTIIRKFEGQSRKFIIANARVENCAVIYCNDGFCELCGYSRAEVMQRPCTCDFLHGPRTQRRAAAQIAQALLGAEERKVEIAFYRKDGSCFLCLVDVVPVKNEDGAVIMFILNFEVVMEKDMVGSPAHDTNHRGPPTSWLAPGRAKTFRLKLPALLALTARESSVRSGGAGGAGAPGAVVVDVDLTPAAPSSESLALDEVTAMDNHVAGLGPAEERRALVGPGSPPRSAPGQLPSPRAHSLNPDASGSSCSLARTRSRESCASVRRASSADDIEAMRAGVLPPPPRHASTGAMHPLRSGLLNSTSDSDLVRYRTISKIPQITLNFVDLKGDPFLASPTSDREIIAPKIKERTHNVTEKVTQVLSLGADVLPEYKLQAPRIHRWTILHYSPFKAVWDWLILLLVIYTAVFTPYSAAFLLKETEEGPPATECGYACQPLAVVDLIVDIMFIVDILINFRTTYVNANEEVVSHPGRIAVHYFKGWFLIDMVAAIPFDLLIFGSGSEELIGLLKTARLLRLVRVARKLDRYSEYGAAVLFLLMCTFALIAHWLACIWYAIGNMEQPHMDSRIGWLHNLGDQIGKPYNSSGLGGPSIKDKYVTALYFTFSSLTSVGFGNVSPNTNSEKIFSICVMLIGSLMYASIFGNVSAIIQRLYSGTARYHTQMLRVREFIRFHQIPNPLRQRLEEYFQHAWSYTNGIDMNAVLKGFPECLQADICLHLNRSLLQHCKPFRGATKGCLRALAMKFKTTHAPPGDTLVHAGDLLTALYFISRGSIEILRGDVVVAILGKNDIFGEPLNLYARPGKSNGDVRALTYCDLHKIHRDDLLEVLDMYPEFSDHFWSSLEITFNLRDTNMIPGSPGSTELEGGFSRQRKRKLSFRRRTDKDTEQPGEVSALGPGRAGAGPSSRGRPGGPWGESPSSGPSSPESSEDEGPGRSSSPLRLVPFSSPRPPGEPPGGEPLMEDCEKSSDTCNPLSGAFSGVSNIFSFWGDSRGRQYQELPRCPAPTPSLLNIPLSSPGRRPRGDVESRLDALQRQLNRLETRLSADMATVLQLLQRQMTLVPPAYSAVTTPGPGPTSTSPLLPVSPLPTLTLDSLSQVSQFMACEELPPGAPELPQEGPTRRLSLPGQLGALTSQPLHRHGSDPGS
measured-endpoint: inhibition at 75 min, 10 µM

{"substance-smiles": "N#CC1(c2ccccn2)CCN(Cc2cc(C(=O)O)c(=O)n3ccccc23)CC1", "value-reported": "5% (not active)"}

====

molecular target: 5-hydroxytryptamine receptor 7 (Homo sapiens)
Sequence (P34969 whole entry): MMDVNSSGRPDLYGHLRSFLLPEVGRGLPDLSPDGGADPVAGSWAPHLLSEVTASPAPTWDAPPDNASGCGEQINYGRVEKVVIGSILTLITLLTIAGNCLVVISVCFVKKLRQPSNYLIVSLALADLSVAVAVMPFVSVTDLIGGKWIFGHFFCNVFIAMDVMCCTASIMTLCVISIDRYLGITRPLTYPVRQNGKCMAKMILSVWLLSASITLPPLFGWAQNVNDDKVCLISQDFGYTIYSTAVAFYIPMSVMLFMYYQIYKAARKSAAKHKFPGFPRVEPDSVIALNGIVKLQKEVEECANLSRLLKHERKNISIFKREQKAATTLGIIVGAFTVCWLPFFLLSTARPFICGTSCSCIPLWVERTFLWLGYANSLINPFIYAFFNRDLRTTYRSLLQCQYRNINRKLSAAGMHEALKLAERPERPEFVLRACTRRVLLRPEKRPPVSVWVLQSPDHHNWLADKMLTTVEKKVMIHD

{"substance-smiles": "N#CC1(c2ccccn2)CCN(Cc2cc(C(=O)O)c(=O)n3ccccc23)CC1", "Ki": "10 µM"}

====

Target: Tyrosine-protein phosphatase non-receptor type 2 (Homo sapiens, UniProt P17706)
Sequence (P17706 whole entry): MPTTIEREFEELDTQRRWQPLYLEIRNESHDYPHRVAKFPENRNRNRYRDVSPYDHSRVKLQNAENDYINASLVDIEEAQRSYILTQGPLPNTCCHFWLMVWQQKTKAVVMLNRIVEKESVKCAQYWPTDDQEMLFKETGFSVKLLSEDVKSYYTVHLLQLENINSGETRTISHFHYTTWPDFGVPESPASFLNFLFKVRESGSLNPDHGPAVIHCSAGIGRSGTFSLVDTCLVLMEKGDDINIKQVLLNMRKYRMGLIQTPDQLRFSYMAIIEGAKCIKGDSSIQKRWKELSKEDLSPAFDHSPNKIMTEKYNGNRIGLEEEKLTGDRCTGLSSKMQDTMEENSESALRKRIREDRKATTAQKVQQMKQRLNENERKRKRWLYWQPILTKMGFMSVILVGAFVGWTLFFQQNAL
Experiment: Protein Tyrosine Phosphatase, PTPN2 (TCPTP) Eurofins-Panlabs enzyme assay
Design: substrate with concentration DiFMUP, incubation time 60 min, incubation temperature 37 °C

{"substance-smiles": "N#CC1(c2ccccn2)CCN(Cc2cc(C(=O)O)c(=O)n3ccccc23)CC1", "IC50 (µM)": 10}
